Data origin, for the record: ChEMBL document CHEMBL3259736

- Test system: HepG2
- measurementDescription: Cytotoxicity against human HepG2 cells assessed as inhibition of cell growth after 3 days by MTT assay
- Assay type: functional, cell-based
- conditionContext: HepG2, 72 h
pIC50: −log10 of the molar value.
Items are presented alongside their recorded pIC50.

>>> observedresult("COc1cccc(/C=C(\\NC(C)=O)C(=O)N[C@H](C(=O)N[C@H](/C=C(\\C)C(=O)O)C(C)C)C(C)(C)C)c1")
"< 6.57"
>>> observedresult("CCOC(=O)/C(C)=C/[C@H](C(C)C)N(C)C(=O)[C@@H](NC(=O)/C(=C/c1cccc(OC)c1)NC(C)=O)C(C)(C)C")
"< 6.57"

(Q) Form field: pIC50 recorded for CCOC(=O)/C(C)=C/[C@@H](NC(=O)[C@@H](NC(=O)/C(=C/c1cccc(Br)c1)NC(C)=O)C(C)(C)C)C(C)C with HepG2 (enter value)
(A) < 6.57

(Q) Form field: pIC50 recorded for CC(=O)N/C(=C\c1ccc(Br)cc1)C(=O)N[C@H](C(=O)N[C@H](/C=C(\C)C(=O)O)C(C)C)C(C)(C)C with HepG2 (enter value)
(A) < 6.57

(Q) Form field: pIC50 recorded for CC(=O)N/C(=C\c1ccoc1)C(=O)N[C@H](C(=O)N[C@H](/C=C(\C)C(=O)O)C(C)C)C(C)(C)C with HepG2 (enter value)
(A) < 6.57

(Q) Form field: pIC50 recorded for COc1ccc(/C=C(\NC(C)=O)C(=O)N[C@H](C(=O)N[C@H](/C=C(\C)C(=O)O)C(C)C)C(C)(C)C)cc1 with HepG2 (enter value)
(A) < 6.57

###

Items are presented alongside their recorded pIC50.
- System: HepG2
- measurementDescription: Cytotoxicity against human HepG2 cells assessed as inhibition of cell growth after 3 days by MTT assay
- Assay type: functional, cell-based
- conditionContext: HepG2, 72 h
The meaning of pIC50 here: minus log10 of the concentration in molar units.

Below, 3 molecules whose answers are already recorded.
>>> observedresult("CCOC(=O)/C(C)=C/[C@@H](NC(=O)[C@@H](NC(=O)/C(=C/c1ccsc1)NC(C)=O)C(C)(C)C)C(C)C")
7.24
>>> observedresult("Cc1c2ccncc2c(C)c2c1[nH]c1ccccc12 [ELLIPTECINE]")
8.90
>>> observedresult("CCOC(=O)/C(C)=C/[C@@H](NC(=O)[C@@H](NC(=O)/C(=C/c1ccco1)NC(C)=O)C(C)(C)C)C(C)C")
6.67

Below: the item to evaluate.
(Q) What value of pIC50 has been recorded for this entry: CCOC(=O)/C(C)=C/[C@H](C(C)C)N(C)C(=O)[C@@H](NC(=O)/C(=C/c1ccsc1)NC(C)=O)C(C)(C)C
(A) 7.82

###

- Test system: HepG2
- measurementDescription: Cytotoxicity against human HepG2 cells assessed as inhibition of cell growth after 3 days by MTT assay
- Format: functional, cell-based
- conditionContext: HepG2, 72 h
pIC50: −log10 of the molar value.
metric: pIC50

Below, 2 compounds whose answers are already recorded.
>>> observedresult("CC(=O)N/C(=C\\c1ccsc1)C(=O)N[C@H](C(=O)N[C@H](/C=C(\\C)C(=O)O)C(C)C)C(C)(C)C")
"< 6.57"
>>> observedresult("CC(=O)N/C(=C\\c1ccco1)C(=O)N[C@H](C(=O)N(C)[C@H](/C=C(\\C)C(=O)O)C(C)C)C(C)(C)C")
"< 6.57"

Below: the item to evaluate.
(Q) Form field: pIC50 recorded for CCOC(=O)/C(C)=C/[C@H](C(C)C)N(C)C(=O)[C@@H](NC(=O)/C(=C/c1ccc(Br)cc1)NC(C)=O)C(C)(C)C with HepG2 (enter value)
(A) < 6.57
